- experimentDescription: NCI Yeast Anticancer Drug Screen. Data for the mec2-1 strain (AID 157)
- setupConditions: S. cerevisiae mec2-1 strain, at 5.0 µM (retest, dose inferred, filed as 0.5)
The panel holds about 79,000 compounds, 15% with a hit somewhere; the sample as a whole holds those more often. The source made the active and inactive calls. No stated cut-off is given here; in the data, active means growth inhibition above about 70%; inactive means the rest.
Mark one answer only. Choices: true = active, false = inactive

For orientation, consider the following solved cases.
CC(=O)N(C1=CC(=O)c2ccccc2C1=O)c1ccc(Cl)cc1 : true
COc1ccc(C2c3cc4c(cc3OC(N3CCOCC3)C2C)OCO4)c(OC)c1 (stereo unspecified) : false
ClC1CC[N-]CC1.ClC1CC[N-]CC1.[Cl][Pt+2]([Cl])([Cl])[Cl] : false
O=S(=O)(CC(Br)c1ccccc1)CC(Br)c1ccccc1 (stereo unspecified) : false
C[Si](C)(C)CN1C(=O)c2ccccc2C1(O)c1ccccc1 (stereo unspecified) : false

Now look at this one.
// return assay outcome for CCC(Sc1ccccc1[N+](=O)[O-])[N+](=O)[O-] (stereo unspecified) false

====

Entries and their growth inhibition
- experimentDescription: NCI Yeast Anticancer Drug Screen. Data for the rad50 strain (AID 155);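 further: 0% = growth of vehicle-only cultures of the same strain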
- setupConditions: S. cerevisiae rad50 strain growth inhibition; at 5.0 µM (retest, dose inferred, filed as 0.5); active compounds read high
About 79,000 compounds went through this panel and 15% of them were active in at least one assay; those are over-represented in the sample as a whole.
All answers are understood in %, so give the number only.

Cc1ccc(SC2C(=O)C3(C)CCC2C3(C)C)cc1 (configuration not stated) : -1
Brc1cccc[n+]1Cc1cc2ccccc2c2ccccc12 : 0
CC(=O)/C(=C/n1c(=S)[nH]c2ccc([N+](=O)[O-])cc21)C(=O)Nc1ccc(Cl)cc1 : 1

Requested read-out: growth inhibition. Entry: C/C(=C/C(=O)N1c2ccccc2CC1c1c[nH]c2ccccc12)C(=O)O (configuration not stated) -1

Same question, "CN(C)C(=S)/N=c1\ss/c(=N\C(=S)N(C)C)n1-c1cccc(Cl)c1" this time 6

Same question, "CCCCCCCC/C=C\CCCCCCCC(=O)OCCCCC" this time -7

Same question, "C#CC[N+](CC)(CC)CCNC(=O)CCCCCCCCCCCCCCC" this time 97

Same question, "CCCCCCCCCCCC(=O)OCCOP(=O)(OCC)OCC" this time -1

Same question, "C/C(=N/NC(=S)N1CCCC1)c1cccc(/C(C)=N\NC(=S)N2CCCC2)n1" this time 11

====

- experimentDescription: NCI Yeast Anticancer Drug Screen. Data for the mlh1 rad18 strain (AID 175)
- setupConditions: S. cerevisiae mlh1 rad18 strain growth inhibition; at 50.0 µM; active compounds read high
Compounds without any hit were thinned out: in the full panel of roughly 79,000, 15% have a hit.
readout: growth inhibition (%)
All answers are understood in %, so give the number only.

Requested read-out: growth inhibition. Entry: "Cc1ccc(NC(=S)N(CCC#N)C2CCCCC2)cc1C" 14.6

Same question, "CCOC(=O)CC[P+](Cc1ccccc1)(c1ccccc1)c1ccccc1" this time 11

Same question, "CC(=O)Nc1ccc(NC(=S)Nc2ccc(NC(C)=O)cc2)cc1" this time 13.8

Same question, "CC(C)(Br)C(=O)/C=C/c1ccc(Cl)cc1" this time 99.4

Same question, "CCOc1ccc2c(ccc(/C=C\c3cc(C)c4cccnc4c3O)[n+]2C)c1" this time 89

====

- experimentDescription: NCI Yeast Anticancer Drug Screen. Data for the mec2-1 strain (AID 157)
- setupConditions: S. cerevisiae mec2-1 strain, at 50.0 µM
This is part of a sample that, as a whole, favours compounds with a hit. Of some 79,000 tested, about 15% had one in any assay. The source made the active and inactive calls. Cut-off read from the data, not from the text of the source: active = growth inhibition above about 70%; inactive = the rest.
Mark one answer only. Choices: active, inactive

For orientation, consider the following solved cases.
COc1ccc(C2COc3c(ccc(O)c3O)C2)cc1OC (configuration not stated) : inactive
O=C1c2cc([N+](=O)[O-])ccc2-c2cc([N+](=O)[O-])ccc21 : active
CCS(=O)(=O)/C=C/c1ccncc1 : inactive
CC1=C(C(=O)Nc2ccccc2C)C(c2ccccc2F)C(C(=O)Nc2ccccc2C)=C(C)N1 : inactive
C[C@]12CC[C@@H]3c4cc(OCC(F)(F)F)c(O)cc4CC[C@H]3[C@@H]1CC[C@@H]2O : active
CC(=O)Nc1ccc(-c2csc(Nc3ccnc4cc(Cl)ccc34)n2)cc1 : inactive
O=C1c2cc(F)ccc2-c2c(F)cc(F)c(F)c21 : inactive
O=[N+]([O-])c1ccc(NS(=O)(=O)c2ccccc2)c(NS(=O)(=O)c2ccccc2)c1 : active

Now look at this one.
// return assay outcome for N#CC(c1c(Cl)cccc1N1CCCCC1)N1CCCCC1 (configuration not stated) active

====

- experimentDescription: NCI Yeast Anticancer Drug Screen. Data for the cln2 rad14 strain (AID 165);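 further: 0% = growth equal to vehicle treated cultures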
- setupConditions: S. cerevisiae cln2 rad14 strain, at 5.0 µM (retest, dose inferred, filed as 0.5), active compounds read high
Compounds without any hit were thinned out: in the full panel of roughly 79,000, 15% have a hit.
readout: growth inhibition (%)
All answers are understood in %, so give the number only.

Answered cases to consult:
CC(C)(C)NC(=S)N/N=C/c1cc(Cl)cc(Cl)c1O : 88
Clc1ccc(Cl)c(SCCCN2CCNCC2)c1 : 6
Cc1c(-c2ccccc2)ccnc1/C=N/NC(=S)Nc1ccccc1 : 1
CC(O[Si](C)(C)C(C)(C)C)C(=O)Sc1ccccn1 (stereo not given) : -10
COC(=O)CCc1c(Cc2ccc[nH]2)[nH]c(C(=O)OCc2ccccc2)c1C : -32

Requested read-out: growth inhibition. Entry: "Clc1ccccc1NN(Cc1ccccn1)c1ccccc1Cl" -14

Same question, "Oc1ccc2c(c1)Cc1cc(Br)ccc1-2" this time -5

Same question, "CCC(=O)Oc1c(Br)c(Br)c(Br)c(Br)c1Br" this time 21

Same question, "O=C(CCl)[O][Bi]([O]C(=O)CCl)([c]1ccccc1)([c]1ccccc1)[c]1ccccc1" this time 26

Same question, "ClCc1c(-c2ccccc2)oc(-c2ccccc2)c1CCl" this time 1

====

- experimentDescription: NCI Yeast Anticancer Drug Screen. Data for the cln2 rad14 strain (AID 165);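 further: 0% = growth equal to vehicle treated cultures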
- setupConditions: S. cerevisiae cln2 rad14 strain, at 50.0 µM (retest, dose inferred, filed as 5.0)
The panel holds about 79,000 compounds, 15% with a hit somewhere; the sample as a whole holds those more often. Calls of active or inactive are those of the source. No stated cut-off is given here; in the data, active means growth inhibition above about 70%; inactive means the rest.
Mark one answer only. Choices: active, inactive

O=C(O)c1cc(-c2ccc3c(c2)Nc2ccccc2S3)nc2ccc(F)cc12 : active
O=C1C(Cl)=CC(=NCl)C=C1Cl : active
CCN1C(Cl)=NS(=O)(=O)c2ccccc21 : inactive
c1ccc2c(c1)nc1cc(NC3CCCCC3)c(=NC3CCCCC3)cc-1n2C1CCCCC1 : inactive
CC(C)(C)NC(=S)N/N=C/c1cc(Cl)cc(Cl)c1O : active

// return assay outcome for "CN(C)c1ccc(/C=C2/Oc3ccc(Cl)cc3C2=O)cc1" active

====

- experimentDescription: NCI Yeast Anticancer Drug Screen. Data for the cln2 rad14 strain (AID 165);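 further: 0% = growth equal to vehicle treated cultures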
- setupConditions: S. cerevisiae cln2 rad14 strain, at 50.0 µM (retest, dose inferred, filed as 5.0)
About 79,000 compounds went through this panel and 15% of them were active in at least one assay; those are over-represented in the sample as a whole. Active and inactive are the calls of the source. No stated cut-off is given here; in the data, active means growth inhibition above about 70%; inactive means the rest.
Mark one answer only. Choices: active, inactive

For orientation, consider the following solved cases.
CSc1ncc2c(n1)-c1ccccc1OC2NC1CC1 (centres undefined) : inactive
CCOC(=O)c1[nH]c(Br)c(-c2ccc(OC)c(OC)c2)c1Br : active
CCOC(=O)C1=C(C)NC(C)=C(C(=O)OCC)C1c1c(-c2ccccc2)noc1C : inactive

// return assay outcome for "N#CI1OC(C(F)(F)F)(C(F)(F)F)c2ccccc21" active

Same question, "COC(=O)/C(Br)=C(\Br)c1ccccc1" this time inactive

====

- experimentDescription: NCI Yeast Anticancer Drug Screen. Data for the mec2-1 strain (AID 157)
- setupConditions: S. cerevisiae mec2-1 strain, at 50.0 µM, active compounds read high
Compounds without any hit were thinned out: in the full panel of roughly 79,000, 15% have a hit. The source made the active and inactive calls. Cut-off read from the data, not from the text of the source: active = growth inhibition above about 70%; inactive = the rest.
readout: growth inhibition

COC(=O)C1C(C(=O)OC)C2(OC(c3ccc(Cl)cc3)=CC2=O)C12OC(c1ccc(Cl)cc1)=CC2=O (stereo not drawn) : 92% (active)
CCCCCCCCCCCC(=O)NN : 97.6% (active)
c1ccc(-c2ccc(-c3ccc(C4=NCCN4)cc3)o2)cc1 : 95% (active)
NNC(=O)C(=O)N/N=C(/CCC(=O)NCCc1ccccc1)CC(=O)c1ccccc1 : 3.05% (inactive)
CC1(C)CC(N(C(=O)/C=C/c2ccc([N+](=O)[O-])o2)C2CCCCC2)CC(C)(C)N1 : 13.9% (inactive)
CCCC/C=C1\CCC(CN2CCCCC2)C1=O (stereo not drawn) : 69.8% (inactive)
O=C1c2ccccc2C(=O)c2cc(N3C(=O)C=CC3=O)ccc21 : 92% (active)
N#Cc1c(-c2ccc(Cl)cc2)c2c(n(C3OC(CO)C(O)C(O)C3O)c1=S)CCCC2 (stereo not drawn) : 10.5% (inactive)

Requested read-out: growth inhibition. Entry: "O=C1C(Cl)=CC(=NCl)C=C1Cl" 91% (active)

Same question, "CC(C)C[NH-].CC(C)C[NH-].[Cl][Pt+2]([Cl])([Cl])[Cl]" this time 91.5% (active)

Same question, "CC(C)OC(=O)c1ccccc1C(=C1C=C(Br)C(=O)C(Br)=C1)c1cc(Br)c(O)c(Br)c1" this time 91.9% (active)

Same question, "CC(=O)Nc1ccc(S(=O)(=O)N/N=C/c2cc(I)cc([N+](=O)[O-])c2O)cc1" this time 81.5% (active)

Same question, "O=C(Nc1ccccc1)OC1CCCC1" this time 11.8% (inactive)

Same question, CC12CC(Sc3ccccc3N1)c1ccccc1O2 (stereo not drawn) this time 25.3% (inactive)

Same question, "CCCNC(=O)c1cc2ccccc2cc1C(=O)OC" this time 88.5% (active)

Same question, "COC(=O)c1cccc2c3ccccc3c3ccccc3c12" this time 99.5% (active)
